Tested on: MS2 coat protein
Assay: apparent KD of MS2 coat protein; designed switch direction (-1 OFF switch, 1 ON switch): -1; higher = weaker reporter binding
Conditions: Eterna round: R95; input ligand: microRNA oligo, concentration not stated
Where apparent KD of MS2 coat protein equals or exceeds 30 nM, the correct label is MET; where it does not, the label is NOT MET.

{"SEQUENCE_RECORD": "AAGUAUAGAGGAUAUAGUGAGUACUACAUGAGGAUCACCCAUGUUCUUCAAAACGUAUUUCUAGAAGGCUGUUAAA [EX-5 Malc#20] (puzzle: Exclusion 5)", "CLASS": "MET"}
{"SEQUENCE_RECORD": "CUCCUCGUGGCGCCUAAACACAUGAGGAUCACCCAUGUACAGGCUUUUUGCCGUCUUAUAAUAAAACCGAGGAGGCG [Arce] (puzzle: Sensor v3, turn-off variant 1)", "CLASS": "NOT MET"}
{"SEQUENCE_RECORD": "CUUUAGUGAGGAUAUUAGUAGUAAUACAAUAGUAUUACUACUGAGAAGGCACAUGAGGAUCACCCAUGUUCCUC [Mat - Exclusion 4 - Mod of Omei - D79] (puzzle: Exclusion 4)", "CLASS": "NOT MET"}
{"SEQUENCE_RECORD": "ACGUAUAGAGGAUAUAGUGAAUAUUACAUGAGGAUCACCCAUGUUCUUCAAAGUAUAUUUCUAGAAGGCUAAUGAA [EX-5 Malc#10] (puzzle: Exclusion 5)", "CLASS": "MET"}
{"SEQUENCE_RECORD": "AAGAAACAUGAGGAUCACCCAUGUGAGGAUAUGAGCAAGAAAAGAAAAGAAAGAAGACUCAGAAGGCACAAAGG [salish99-ex1_r3_072] (puzzle: Exclusion 1)", "CLASS": "MET"}
{"SEQUENCE_RECORD": "UUUAAUUUUUUUUUUUUACAAGCUUUUUGCUCGUCUUAUACAUGAGGAUCACCCAUGUGAAUGAGGGAUAAAUUAUC [JMF 39] (puzzle: Sensor v3, turn-off variant 2)", "CLASS": "NOT MET"}
{"SEQUENCE_RECORD": "CAGUACUGAGGAUAUACAUGAGGAUCACCCAUGUGUUCCAGCUAGGAAACUGGCAAAAGUAGAAGGCAGUACUG [salish99_ex3_r3_070] (puzzle: Exclusion 3)", "CLASS": "NOT MET"}
